test system: EKVX NSCLC; experiment: NCI tumour cell line growth inhibition, 48 h

chemical_structure	test_system	GI50
COc1cc(C#Cc2ccc(=O)oc2C#Cc2ccccc2)cc(OC)c1OC	EKVX NSCLC	5.32 µM
COC(=O)CCc1c[nH]c2ccc(N(CCCl)CCCl)cc12	EKVX NSCLC	21.8 µM
[Cl][Hg][Cl]	EKVX NSCLC	19.9 µM

###

tested on: A498 renal; assay: NCI tumour cell line growth inhibition, 48 h; in the data active means GI50 below about 0.43 µM; inactive means the rest
Outcome codes: y (active), n (inactive)

molecule	classification
O=S(=O)(Nc1ccccc1Cl)c1ccc(-c2cnc(C3CC3)o2)cc1	y
CN(C)CCCNC(=O)c1cc(NC(=O)c2cc(NC(=O)CCc3c[nH]c4ccccc34)cn2C)cn1C	n
Cc1ccc(C)c2c1C(O)(C#Cc1ccccc1)c1ccccc1C2(O)C#Cc1ccccc1 (stereo not drawn)	n

###

Property: TGI; scope: individual molecules
tested on: UACC-257 melanoma; experiment: NCI tumour cell line growth inhibition, 48 h

molecule	TGI
CC(C(=O)c1ccccc1)C(c1ccccc1)N1CCOCC1 (stereo not given)	> 100 µM
CC(=O)OCC1OC(n2c(-c3ccc(Cl)cc3)ccc(C#N)c2=S)C(OC(C)=O)C(OC(C)=O)C1OC(C)=O (stereo not given)	> 100 µM
N/C(=N\S(=O)(=O)c1ccc(S(=O)(=O)c2ccccc2)s1)Nc1ccc(Cl)cc1	29.1 µM
COC(=O)[C@@H]1[C@@H](c2cccc(Cl)c2)[C@H](C(=O)OC)C2(C[C@@]1(C)O)NCCS2 (stereo not given in full)	> 100 µM
CC(C)=CCc1c(OC(=O)c2c(C)cc(O)cc2O)cc(CO)c(CO)c1O	> 100 µM

###

Property: TGI; scope: individual molecules
system: K-562 leukemia; assay: NCI tumour cell line growth inhibition, 48 h

molecule	TGI
O=CN1CCN(C(=O)c2ccc(Cl)cc2Cl)C1=S	> 100 µM
CC1CCC2(CC1)NN=c1s/c(=C\c3ccc(O)cc3)c(=O)n1N2 (stereo not drawn)	> 100 µM
O=C(NCCC1([N+](=O)[O-])CCN(C(=O)c2ccccc2)CC1)c1ccccc1	> 100 µM
CCCSc1ccc2[nH]c(N3C(=O)/C(=C/c4ccco4)N=C3c3ccccc3)cc2c1	> 50 µM
COc1ccc(-n2cnnc2-c2nsc3ccccc23)cc1	> 100 µM
O=c1c(Oc2ccc(F)cc2F)cc2cnc(NC3CCOCC3)nc2n1CCCO	> 25 µM
CC(C(=O)c1ccccc1)C(c1ccccc1)N1CCOCC1 (stereo not drawn)	> 100 µM
O=C(c1ccco1)N1CCCN(C(=O)c2ccco2)C1=S	> 100 µM

###

tested on: OVCAR-4 ovarian; experiment: NCI tumour cell line growth inhibition, 48 h

chemical_structure	TGI
COc1cc(OC)cc(N(CCNC(C)C)c2ccc3ncc(-c4cnn(C)c4)nc3c2)c1	14.8 µM
Cc1ccc(SC(CCC(Sc2ccc(C)cc2)Sc2ccc(C)cc2)Sc2ccc(C)cc2)cc1	> 100 µM
C=C1C(=O)O[C@H]2[C@H]1CC/C(COC(=O)CSCCSCC(=O)OC/C1=C/CC[C@@]3(C)O[C@H]3[C@H]3OC(=O)C(=C)[C@@H]3CC1)=C\CC[C@@]1(C)O[C@@H]21	6.05 µM
O=S(=O)(Nc1ccccc1Cl)c1ccc(-c2cnc(C3CC3)o2)cc1	> 100 µM
CC(C)OP(=O)(OC(C)C)/C(I)=N/Nc1ccc([N+](=O)[O-])cc1	> 100 µM
COc1cc(-c2cc3ncccc3c3nc(N)c4cccnc4c23)cc(OC)c1OC	> 100 µM
O=C(/C=C/c1ccc(O)c(O)c1)OCCCc1ccccc1	20.7 µM
Oc1ccc(-c2nc(-c3cccnc3)c(-c3ccc(Cl)cc3)[nH]2)cc1O	51.6 µM
Cc1nc(C)c(C(=O)NNC(N)=S)cc1C(=O)NNC(N)=S	> 100 µM

###

system: RXF 393 renal; assay: NCI tumour cell line growth inhibition, 48 h

compound	TGI
COc1ccc(-c2cc(=O)c3ccc(C)nc3[nH]2)cc1	> 100 µM
O=[N+]([O-])C1CC/C(=N/O)c2nonc21 (stereo not given)	> 10 µM
C[C@H](CCC(=O)NCCS(=O)(=O)O)[C@H]1CC[C@H]2[C@@H]3CC[C@@H]4C[C@H](O)CC[C@]4(C)[C@H]3CC[C@]12C	> 100 µM
[Cl][Hg][Cl]	32.6 µM
Nc1nc(SCc2ccc([N+](=O)[O-])cc2)nc2c1ncn2C1OC(COP(=O)(O)O)C(O)C1O (stereo not given)	> 100 µM

###

tested on: SN12C renal; assay: NCI tumour cell line growth inhibition, 48 h

molecule	TGI
Cc1[nH]c2c(c1C)S(=O)(=O)c1cc3ccccc3nc1N2	36.9 µM
CC1CCC2(CC1)NN=c1s/c(=C\c3ccc(O)cc3)c(=O)n1N2 (stereo unspecified)	> 100 µM
S=C(Nc1ccc(Br)cc1)Nc1ccc(Br)cc1	> 100 µM
COC(=O)[C@]1(c2cc3ccccc3n2S(=O)(=O)c2ccccc2)CC2CN(C(C)=O)C1CC2=O (stereo partly specified)	8.11 µM
CC1=Nc2nc(Cl)cn2C(=O)C1(Cl)Cl	> 10 µM
Nc1nc(Cl)c(N)c(NCC2(CO)CC(OCc3ccccc3)C2)n1 (stereo unspecified)	> 100 µM

###

Property: TGI; scope: individual compounds
system: TK-10 renal; test: NCI tumour cell line growth inhibition, 48 h

compound	value_comparator	TGI, µM
COC(=O)NCCc1[nH]nc2c1C(=O)C=C(N1CCOCC1)C2=O	>	100
CNC(=O)c1ccc(N2CCN(Cc3ccc4nc(C)c(=O)[nH]c4c3F)CC2)c(F)n1	>	100
CC(C)=CCc1c(OC(=O)c2c(C)cc(O)cc2O)cc(CO)c(CO)c1O	=	77.9
Cc1ccc(S(=O)(=O)NC(=O)C2C(=O)CC3(CCCCC3)CC2=O)cc1	=	62.1
OC(c1cc2ccccc2o1)c1cc2ccccc2s1 (stereo not given)	>	10

###

Property: TGI; scope: individual compounds
system: HL-60(TB) leukemia; test: NCI tumour cell line growth inhibition, 48 h
quantity_name: TGI (µM)

compound	quantity_name	value_comparator	result_number
CCCNNC(=O)/C=C/c1ccc(CNCCc2c(C)[nH]c3ccccc23)cc1	TGI	=	3.96
Clc1nc(Cl)c2ncn(Cc3cccc(Cn4cnc5c(Cl)nc(Cl)nc54)c3)c2n1	TGI	=	82.8
COc1ccc(OC)c2c1CC(C(=O)O)(C(=O)O)CC2=O	TGI	>	100
COc1ccc2c(CN3CCCCC3CO)cc3cc(OC)c(OC)cc3c2c1 (stereo unspecified)	TGI	=	12.5
CN[C@H]1C=C[C@@H]2/C=C(C)/C=C/[C@@H](C)[C@H]([C@H](C)[C@H](O)[C@@H](C)NC(C)=O)OC(=O)/C=C/C=C(C)\C=C\[C@]2(C)C1	TGI	=	35.7
CC(O)c1cc2c(s1)C(=O)c1sccc1C2=O (stereo unspecified)	TGI	>	100
CC(=O)OCCOCn1c2c(c(=S)[nH]c1=O)CCC2	TGI	>	100
[N-]=[N+]=C1N=CN=C1c1ncn[nH]1	TGI	=	40.5
COc1ccc(-n2cnnc2-c2nsc3ccccc23)cc1	TGI	>	100
CN(C)CC(C)(C)C(=O)/C=C/c1ccc(/C=C/C(=O)C(C)(C)CN(C)C)cc1	TGI	=	4.17
COc1cc2c(c(OC)c1OC)-c1ccc(SC)c(=O)cc1[C@@H](NCc1ccc(C#N)cc1)CC2	TGI	=	0.0089
CCSc1sc(=Nc2ccc(N=c3sc(C)c(SC)s3)cc2)sc1-c1ccc(C)cc1	TGI	>	100
C=C(c1ccc2nc(NC(=O)OC)[nH]c2c1)c1cccs1	TGI	>	32.7
CC[C@H](O)[C@H](C)C=C1SCCCS1	TGI	=	89.7
CC1CCC2(CC1)NN=c1s/c(=C\c3ccc(O)cc3)c(=O)n1N2 (stereo unspecified)	TGI	>	100
CCCCCCCCOC1C(O)C(O)C(O)C(O)C12CO2 (stereo unspecified)	TGI	>	100
CN(C)CCCNC(=O)c1cc(NC(=O)c2cc(NC(=O)CCc3c[nH]c4ccccc34)cn2C)cn1C	TGI	>	100
CCOC(=O)C1N(S(=O)(=O)c2ccc(C)cc2)CCC12c1ccccc1N(C(C)=O)C2c1ccc(OC)c(OC)c1 (stereo unspecified)	TGI	>	100
COc1cc(/C=C2\C(=O)Nc3cc(C)c(O)cc32)cc(OC)c1OC	TGI	=	5.84
CCC[CH2][Sn]1([CH2]CCC)[O]CC(Cc2ccccc2)[O]1 (stereo unspecified)	TGI	=	2.31
O=C1c2ccccc2C(Br)(Br)c2ccccc21	TGI	>	31.6

###

tested on: RXF 393 renal; experiment: NCI tumour cell line growth inhibition, 48 h; in the data active = GI50 below about 0.43 µM; inactive = the rest
Outcome codes: active, inactive

chemical_structure	classification
O=C(Nc1cccc(-n2ccc3c(NC(=O)c4ccccc4)nccc32)c1)Nc1cc(C(F)(F)F)cc(C(F)(F)F)c1	inactive
CCC[CH2][Sn]([CH2]CCC)([CH2]CCC)[O]c1ccc(Cl)cc1Cl	active
O=c1c(Oc2ccc(F)cc2F)cc2cnc(NC3CCOCC3)nc2n1CCCO	inactive

Data provenance is PubChem BioAssay (NCI).
